Source of measurements: ChEMBL document CHEMBL4346653

Biological target: Adenosine receptor A1 (Homo sapiens)
Assay: Displacement of [3H]DPCPX from recombinant human A1 adenosine receptor expressed in CHO cell membranes measured after 120 mins by topcount scintillation counting method
quantity: Ki
Record the result as a number with its unit.

Which measured Ki value corresponds to `O=C(Nc1nc2nn(CCCc3ccccc3)cc2c2nc(-c3ccco3)nn12)c1cccc2ccccc12` ? 1100 nM

----------
Target: Adenosine receptor A2a (Homo sapiens, UniProt P29274)
Sequence (P29274 whole entry): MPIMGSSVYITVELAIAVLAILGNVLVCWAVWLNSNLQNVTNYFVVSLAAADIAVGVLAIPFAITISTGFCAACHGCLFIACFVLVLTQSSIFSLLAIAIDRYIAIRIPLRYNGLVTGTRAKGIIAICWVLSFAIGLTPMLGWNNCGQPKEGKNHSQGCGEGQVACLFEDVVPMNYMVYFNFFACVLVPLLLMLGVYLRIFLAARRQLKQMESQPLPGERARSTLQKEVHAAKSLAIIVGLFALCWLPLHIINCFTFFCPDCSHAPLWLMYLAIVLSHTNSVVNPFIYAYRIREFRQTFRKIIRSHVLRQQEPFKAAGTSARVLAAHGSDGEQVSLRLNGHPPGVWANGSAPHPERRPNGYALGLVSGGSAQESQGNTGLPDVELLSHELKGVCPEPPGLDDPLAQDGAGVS
Assay: Displacement of [3H]MSX-2 from recombinant human A2A adenosine receptor expressed in CHO cell membranes at 1 uM measured after 30 mins in presence of adenosine deaminase by liquid scintillation counting method relative to control
What inhibition was measured for each of the following?
Report the figure in % without appending any unit label.

Recorded inhibition of `CCCn1c(=O)[nH]c2nc(-c3ccc(S(=O)(=O)N4CCN(c5ccccc5F)CC4)cc3)[nH]c2c1=O` , please. 27

Value lookup for inhibition; key = `CCCn1c(=O)[nH]c2nc(-c3ccc(S(=O)(=O)N4CCN(c5cccc(F)c5)CC4)cc3)[nH]c2c1=O` 38

Returns the measured inhibition for the input molecule. Input: `CCCn1c(=O)[nH]c2nc(-c3ccc(S(=O)(=O)N4CCN(c5cccc(Cl)c5)CC4)cc3)[nH]c2c1=O` 42

----------
Biological target: Adenosine receptor A3 (Homo sapiens, UniProt P0DMS8)
Sequence (P0DMS8 whole entry): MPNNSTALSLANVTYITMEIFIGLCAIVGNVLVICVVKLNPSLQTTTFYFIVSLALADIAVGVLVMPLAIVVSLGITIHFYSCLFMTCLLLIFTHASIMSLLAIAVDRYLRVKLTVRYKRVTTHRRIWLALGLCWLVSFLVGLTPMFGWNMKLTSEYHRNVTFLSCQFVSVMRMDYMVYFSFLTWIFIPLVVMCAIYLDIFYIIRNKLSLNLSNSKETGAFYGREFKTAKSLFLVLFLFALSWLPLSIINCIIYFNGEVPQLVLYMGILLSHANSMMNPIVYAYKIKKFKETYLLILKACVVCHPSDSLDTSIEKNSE
Test: Displacement of [3H]MRE3008-F20 from recombinant human A3 adenosine receptor expressed in CHO cell membranes measured after 120 mins by topcount scintillation counting method
quantity: pKi
Bear in mind: pKi is minus log10 of a mol/L concentration; give just that figure.

So what's the measured pKi for this one? `O=C(Nc1nc2nn(CCCc3ccccc3)cc2c2nc(-c3ccco3)nn12)c1cccc2ccccc12` 6.52

----------
Assign pKi to each entry below.
Target: Adenosine receptor A3 (Mus musculus, UniProt Q61618)
Sequence (Q61618 whole entry): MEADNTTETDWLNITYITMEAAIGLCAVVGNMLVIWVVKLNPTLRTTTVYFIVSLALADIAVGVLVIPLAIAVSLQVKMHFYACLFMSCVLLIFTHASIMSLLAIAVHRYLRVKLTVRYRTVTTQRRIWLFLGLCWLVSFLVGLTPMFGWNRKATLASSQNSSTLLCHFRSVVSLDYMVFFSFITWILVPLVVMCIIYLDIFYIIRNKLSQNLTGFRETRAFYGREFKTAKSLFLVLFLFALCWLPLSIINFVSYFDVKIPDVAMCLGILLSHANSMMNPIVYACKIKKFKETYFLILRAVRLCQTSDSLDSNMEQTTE
Assay: Displacement of [3H]NECA from recombinant mouse A3 adenosine receptor expressed in CHO cell membranes measured after 180 mins by liquid scintillation counting method
pKi: −log10 of the molar value.

Recorded pKi for `CCCn1c(=O)c2[nH]c(-c3ccc(OCC(=O)Nc4ccc(C#N)cc4)cc3)nc2n(CCC)c1=O` , please? < 5.00

# get_value(readout='pKi', item= `CCCn1c(=O)[nH]c2nc(-c3ccc(S(=O)(=O)O)cc3)[nH]c2c1=O` ) < 5.00

----------
Give Ki for every item shown.
Target: Adenosine receptor A1 (Homo sapiens, UniProt P30542)
Sequence (P30542 whole entry): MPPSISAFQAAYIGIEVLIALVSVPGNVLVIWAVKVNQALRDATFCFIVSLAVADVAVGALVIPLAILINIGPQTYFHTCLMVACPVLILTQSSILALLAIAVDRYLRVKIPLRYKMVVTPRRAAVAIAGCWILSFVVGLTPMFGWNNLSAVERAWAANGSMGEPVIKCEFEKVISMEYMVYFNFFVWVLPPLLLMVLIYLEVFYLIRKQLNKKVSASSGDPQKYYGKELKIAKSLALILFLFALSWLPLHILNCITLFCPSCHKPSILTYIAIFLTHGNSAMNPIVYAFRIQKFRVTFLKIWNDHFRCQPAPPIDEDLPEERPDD
Experiment: Displacement of [3H]CCPA from recombinant human A1 adenosine receptor expressed in CHO cell membranes measured after 90 mins in presence of adenosine deaminase by liquid scintillation counting method
Answer format: numeric, nM implied, no suffix.

Can you look up the measured Ki of `CCCn1c(=O)[nH]c2nc(-c3ccc(S(=O)(=O)N4CCN(c5ccc(Cl)c(O)c5)CC4)cc3)[nH]c2c1=O` for me? 113

Which Ki is reported for this molecule? `CCCn1c(=O)[nH]c2nc(-c3ccc(S(=O)(=O)N(C)C)cc3)[nH]c2c1=O` 190

Please look up its Ki: `CCCn1c(=O)[nH]c2nc(-c3ccc(S(=O)(=O)N4CCN(Cc5ccc(Br)c(F)c5)CC4)cc3)[nH]c2c1=O` 326

// Ki lookup, key: `CCCn1c(=O)[nH]c2nc(-c3ccc(S(=O)(=O)N4CCN(Cc5cccc(OC)c5)CC4)cc3)[nH]c2c1=O` 205
